# IC50 listing for each entry below
target_system: human carbonic anhydrase II (hCA II) (Homo sapiens, UniProt P00918)
Construct: from tissue
assay_protocol: CO2 hydratase activity assay (Maren method), hCA II
Type: biochemical
Kindly write the number and append the unit.

{"compound": "O=[N+]([O-])OCC(CO[N+](=O)[O-])O[N+](=O)[O-] [Glyceryl trinitrate]", "readout_value": "272 µM"}

Entry O=[N+]([O-])O[C@@H]1CO[C@H]2[C@@H]1OC[C@@H]2O [Isosorbide mononitrate] — recorded IC50 = 160 µM

---

target_system: human carbonic anhydrase I (hCA I) (Homo sapiens)
Construct: from tissue
Sequence (P00915 whole entry): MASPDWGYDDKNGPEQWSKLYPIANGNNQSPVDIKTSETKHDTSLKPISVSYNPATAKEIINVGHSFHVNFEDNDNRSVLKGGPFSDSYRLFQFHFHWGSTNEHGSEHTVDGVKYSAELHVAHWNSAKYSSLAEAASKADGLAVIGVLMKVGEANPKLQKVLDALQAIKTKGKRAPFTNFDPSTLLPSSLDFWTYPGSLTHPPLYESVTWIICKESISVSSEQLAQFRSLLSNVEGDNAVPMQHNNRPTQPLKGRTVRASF
assay_protocol: Esterase activity assay (4-nitrophenyl-acetate), hCA I
Assay type: biochemical
condition_parameters: esterase method, 4-nitrophenyl-acetate, 348 nm, 25 °C; read-out: IC50 (esterase) hCA I
# log10 of IC50 listing for each entry below
Base-10 log of IC50, unit µM.

{"compound": "CCCSc1nc(N[C@@H]2C[C@H]2c2ccc(F)c(F)c2)c2nnn([C@@H]3C[C@H](OCCO)[C@@H](O)[C@H]3O)c2n1", "log10 of IC50": 1.73}
{"compound": "COCCc1ccc(OCC(O)CNC(C)C)cc1 (stereo not drawn) [Metoprolol succinate]", "log10 of IC50": 2.50}

Summary: COC(=O)[C@H](c1ccccc1Cl)N1CCc2sccc2C1 , human carbonic anhydrase I (hCA I) (Homo sapiens), log10 of IC50 = 1.97

Summary: CC(C)NCC(O)COc1ccc(COCCOC(C)C)cc1 (stereo not drawn) [Bisoprolol hemifumarate] , human carbonic anhydrase I (hCA I) (Homo sapiens), log10 of IC50 = 2.19

Summary: COc1ccccc1OCCNCC(O)COc1cccc2[nH]c3ccccc3c12 (stereo not drawn) , human carbonic anhydrase I (hCA I) (Homo sapiens), log10 of IC50 = 1.31

Summary: CC(=O)Oc1ccccc1C(=O)O , human carbonic anhydrase I (hCA I) (Homo sapiens), log10 of IC50 = 1.63
